Reference source: ChEMBL document CHEMBL1153672

System: Escherichia coli
Assay: In vitro antibacterial activity against Escherichia coli ML4707
Format: functional
Entries annotated with measured MIC
Please state the figure in µg/mL; there is no need to write the unit.

Compound structure	Unit spec	MIC
CC(C)(O/N=C(\C(=O)N[C@@H]1C(=O)N2C(C(=O)[O-])=C(C[n+]3ccccc3)CS[C@H]12)c1csc(N)n1)C(=O)O	µg/mL	0.05

Nc1nc(/C(=N/OCCSc2nnc(-c3cc(O)c(O)cn3)o2)C(=O)[N-][C@@H]2C(=O)N3C(C(=O)[O-])=C(C[n+]4ccc(SCCO)cc4)CS[C@H]23)cs1.[Na+] has a reported MIC of 0.0125

NC(=O)c1cc[n+](CC2=C(C(=O)[O-])N3C(=O)[C@@H]([N-]C(=O)/C(=N\OCCSc4nnc(-c5cc(O)c(O)cn5)o4)c4csc(N)n4)[C@H]3SC2)cc1.[Na+] has a reported MIC of 0.025

CN(C)CC[n+]1ccc(SCC2=C(C(=O)[O-])N3C(=O)[C@@H]([N-]C(=O)/C(=N\OCCSc4nnc(-c5cc(O)c(O)cn5)o4)c4csc(N)n4)[C@H]3SC2)cc1.[Na+] has a reported MIC of 0.025

CO/N=C(\C(=O)N[C@@H]1C(=O)N2C(C(=O)O)=C(COC(C)=O)CS[C@H]12)c1csc(N)n1 has a reported MIC of 0.0125

Nc1nc(/C(=N/OCCSc2nnc(-c3cc(O)c(O)cn3)o2)C(=O)N[C@@H]2C(=O)N3C(C(=O)[O-])=C(CSc4nc5ccccc5s4)CS[C@H]23)cs1.[Na+] has a reported MIC of 0.0125
